- experimental.target: recombinant His-tag Wip1(2-420) protein (amino acids #2-420) (Homo sapiens (Human), UniProt O15297)
- measurement.protocol: Wip1(2-420) phosphatase enzyme FDP assay
- condition: fluorescein diphosphate (FDP) substrate, RT 2 hours, fluorescence Ex485/Em535; read-out: WIP1 (Truncated 2-420) FDP Assay: IC50
measured.metric: pIC50
Scale for pIC50: -log10 of concentration given in mol/L; no unit attached.

Exam item: Query (molecule): Cc1ncc(Cl)cc1N[C@@H](C)c1ccc(C(=O)N[C@@H](CC2CCCC2)C(=O)NC23CC(F)(C2)C3)s1 [Compound 16] ; field requested: pIC50
Marked response: 8.15

Exam item: Query (molecule): C[C@H](Nc1cc(Cl)cnc1C(C)(C)O)c1ccc(C(=O)N[C@@H](CC2CCCC2)C(=O)NC2CC2)s1 [Compound 194] ; field requested: pIC50
Marked response: 8.22

Exam item: Query (molecule): Cc1ncc(Cl)cc1N[C@@H](C)c1ccc(C(=O)N[C@@H](CC2CCCC2)C(=O)Nc2ccc3ncc(C#N)cc3c2)s1 [Compound 148] ; field requested: pIC50
Marked response: 8.22

Exam item: Query (molecule): Cc1ncc(Cl)cc1N[C@@H](C)c1ccc(C(=O)N[C@@H](CC2CCCC2)C(=O)NC2CC(C#N)C2)s1 (stereo partly shown) [Compound 33] ; field requested: pIC50
Marked response: 8.10

* * *

- experimental.target: recombinant His-tag Wip1 full length protein (amino acids #1-605) (Homo sapiens (Human), UniProt O15297)
- Sequence (O15297 whole entry): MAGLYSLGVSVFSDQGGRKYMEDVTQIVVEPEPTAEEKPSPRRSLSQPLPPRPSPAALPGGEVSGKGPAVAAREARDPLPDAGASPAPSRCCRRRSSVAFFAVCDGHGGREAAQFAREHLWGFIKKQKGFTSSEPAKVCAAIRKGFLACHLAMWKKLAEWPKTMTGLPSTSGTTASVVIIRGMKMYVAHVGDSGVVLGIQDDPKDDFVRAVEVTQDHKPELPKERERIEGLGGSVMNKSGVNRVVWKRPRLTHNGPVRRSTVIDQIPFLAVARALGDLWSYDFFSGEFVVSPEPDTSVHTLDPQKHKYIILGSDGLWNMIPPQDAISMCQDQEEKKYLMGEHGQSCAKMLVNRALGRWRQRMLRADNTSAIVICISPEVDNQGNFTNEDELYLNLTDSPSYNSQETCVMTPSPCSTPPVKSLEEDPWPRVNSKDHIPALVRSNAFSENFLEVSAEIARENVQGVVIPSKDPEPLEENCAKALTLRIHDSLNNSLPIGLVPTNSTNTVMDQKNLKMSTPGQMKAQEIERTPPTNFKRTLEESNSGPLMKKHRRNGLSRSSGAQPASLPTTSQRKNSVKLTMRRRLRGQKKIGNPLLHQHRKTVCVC
- measurement.protocol: Wip1 full length phosphatase enzyme FDP assay
- condition: fluorescein diphosphate (FDP) substrate, RT 2 hours, fluorescence Ex485/Em535
- Text: The Human Wip1 (2-420, aa 2-420) or Wip1 full length (aa 1-605) DNA sequence was codon optimized and synthesized by Genscript for insect cell expression. The open reading frame of Wip1(2-420) with a N-terminal-His6 affinity tag followed by a TEV cleavage site was subcloned sites into the pFastBac1 expression vector. The recombinant bacmid DNA was transfected in Sf9 insect cells for baculovirus production. […]
In this section, each of the molecules is paired with its reported pIC50.
Scale for pIC50: -log10 of concentration given in mol/L; no unit attached.

Illustrative cases are given below, each with its answer.
Exam item: Query (molecule): Cc1ncc(Cl)cc1N[C@H](C)c1ccc(C(=O)N[C@@H](CC2CCCC2)C(=O)NC2CC2(F)F)s1 (stereo partly drawn) [Compound 15] ; field requested: pIC50
Marked response: 7.15

Exam item: Query (molecule): CC(Nc1cccc(Cl)c1)c1ccc(C(=O)N[C@@H](CC2CCCC2)C(=O)NC2CC2)s1 (stereo partly drawn) [Compound 4] ; field requested: pIC50
Marked response: 7.82

Note: attention shifts to another entry.
Exam item: Query (molecule): CCn1cc(NC(=O)[C@H](CC2CCCC2)NC(=O)c2ccc([C@H](C)Nc3cc(Cl)cnc3C)s2)cn1 [Compound 162] ; field requested: pIC50
Marked response: 8.10
